All values here come from the RNAGym collection of RNA variant scans (doi:10.1038/nmeth.2970).

Parameter: pKd. Scope: all listed entries.
B1: NELF-E aptamer (parent)
chain: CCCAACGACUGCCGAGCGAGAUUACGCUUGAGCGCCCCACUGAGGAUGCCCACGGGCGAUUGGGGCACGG

- Variants of: B1
- assay-text: HiTS-RAP
- settings: with NELF-E (Drosophila)
Entry type: numeric. Quantity: pKd, the -log10 of concentration in molar units.

Worked cases, pKd given:
# mutant-id, observed-measurement
measured = [
    ("C13G G26A", 8.32),
    ("A8G C13G", 8.23),
    ("G11U U23G", 8.20),
    ("C12G", 8.26),
    ("G7U", 8.26),
]

Request: If you can, please state the reported pKd value of A43G U60C .
Response: 7.70

Request: Which pKd value is on record for U10A C53U ?
Response: 8.30

Request: Item G7U A15U has what recorded pKd?
Response: 8.22

Request: // lookup pKd for C6G C37A
Response: 7.73

Request: Reported pKd for U10C U29C : what is it?
Response: 8.11
